test system: HeLa, ME-180, MDA-MB-231, A549 and NIH:OVCAR-3 cancer cells; assay: cells; assay type: cell-based; conditions: Homo sapiens, 72 h, read-out: IC50 against cancer cells
experimental.readout: IC50

{"input.smiles": "Nc1cc(Br)c(Br)cc1N", "result.value": "15 to 75 µM"}

Attention now shifts to the item below.
Entry Nc1cc(I)c(I)cc1N , IC50 reported as 15 to 75 µM
